Target: CCR5 (Homo sapiens)
Assay: CCR5 in vitro test: intracellular calcium signal detected by FLIPR
Conditions: HEK293 cells expressing CCR5, agonist RANTES at EC80, calcium signal
Protocol: Experimental Example 1: CCR2/CCR5 In Vitro Test The intracellular calcium signal was detected by FLIPR, and the IC50 value of the compound was used as an index to evaluate the inhibitory effect of the compound on CCR2 and CCR5 receptors. 1. Cell line: The cells were inoculated and incubated in a 5% CO2 incubator at 37° C. overnight. CCR2/CCR5 density: 1 M (20 k/well) 2. Reagents: Fluo-4 Direct, (Invitrogen, Cat #F10471) […]
pIC50: −log10 of the molar value.
recordedEndpoint: pIC50

{"molecule": "CCCCOCCOc1ccc(-c2ccc(OC)c(/C=C/C(=O)Nc3ccc([S@+]([O-])Cc4cncn4CC)cc3)c2)cc1 [WX039]", "pIC50": 6.12}
{"molecule": "CCCCOCCOc1ccc(-c2ccc(OC)c(/C=C/C(=O)Nc3ccc([S+]([O-])Cc4c(C)ncn4CCC)cc3)c2)cc1 (stereo not shown) [WX038]", "pIC50": 7.90}

I. CCCCOCCOc1ccc(-c2ccc(OC(F)F)c(/C=C/C(=O)Nc3ccc([S@@+]([O-])Cc4c(C)ncn4CC)cc3)c2)cc1 [WX061]
II. CCCCOCCOc1ccc(-c2ccc(C(F)(F)F)c(/C=C/C(=O)Nc3ccc([S@+]([O-])Cc4c(C)ncn4CC)cc3)c2)cc1 [WX071]
Q. Returns the identifier with the smallest measured pIC50 among I and II . Mark your answer with the label of the selected entry.
A. I

----------
Target: CCR5 (Homo sapiens, UniProt P51681)
Construct: expressed in transfected cells; host or cells: HEK293, clone C13, passage P4
Sequence (P51681 whole entry, species assumed): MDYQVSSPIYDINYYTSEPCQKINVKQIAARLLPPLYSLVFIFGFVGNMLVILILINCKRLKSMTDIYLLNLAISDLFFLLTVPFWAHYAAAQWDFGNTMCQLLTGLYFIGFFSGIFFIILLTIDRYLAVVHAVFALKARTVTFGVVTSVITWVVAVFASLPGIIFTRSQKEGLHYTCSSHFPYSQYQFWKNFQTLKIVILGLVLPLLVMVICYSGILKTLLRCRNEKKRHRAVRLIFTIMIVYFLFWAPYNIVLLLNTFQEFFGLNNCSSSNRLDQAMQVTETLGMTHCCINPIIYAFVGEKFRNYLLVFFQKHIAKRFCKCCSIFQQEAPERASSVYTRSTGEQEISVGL
Test: CCR5 in vitro test: intracellular calcium signal detected by FLIPR
Assay type: cell-based
Settings: HEK293 cells expressing CCR5, agonist RANTES at EC80, calcium signal
pIC50: −log10 of the molar value.
recordedEndpoint: pIC50

The examples below pair each entry with its known result.
{"compound": "CCCCOCCOc1ccc(-c2ccc(OC)c(/C=C/C(=O)Nc3ccc([S@+]([O-])Cc4c(C)ncn4CC)cc3)c2)cc1 [WX079]", "pIC50": 8.24}
{"compound": "CCCCOCCOc1ccc(-c2cccc(/C(C)=C/C(=O)Nc3ccc([S@@+]([O-])Cc4cncn4CCC)cc3)c2)cc1 [WX012]", "pIC50": 8.27}
{"compound": "CCCCOCCOc1ccc(-c2ccc(OC)c(/C=C/C(=O)Nc3ccc([S@@+]([O-])Cc4cncn4CCC)cc3)c2)c(C)c1 [WX036]", "pIC50": 7.88}
{"compound": "CCCCOCCOc1ccc(-c2cc(/C=C/C(=O)Nc3ccc([S@@+]([O-])Cc4cncn4CCC)cc3)c(OC)cc2Cl)cc1 [WX043]", "pIC50": 8.04}

1. CCCCOCCOc1ccc(-c2ccc(C#N)c(/C=C/C(=O)Nc3ccc([S@@+]([O-])Cc4cncn4CCC)cc3)c2)cc1 [WX044]
2. CCCCOCCOc1ccc(-c2cc(C)cc(/C=C/C(=O)Nc3ccc([S@@+]([O-])Cc4cncn4CCC)cc3)c2)cc1 [WX059]
3. CCCCOCCOc1ccc(-c2cc(F)c(OC)c(/C=C/C(=O)Nc3ccc([S@+]([O-])Cc4c(C)ncn4CC)cc3)c2)cc1 [WX088]
Q. # desc sort on pIC50 across 3 compounds Lab note: record answer as labels in requested order.
A. 3, 2, 1

----------
Target: CCR2 (Homo sapiens, UniProt P41597)
Sequence (P41597 whole entry, species assumed): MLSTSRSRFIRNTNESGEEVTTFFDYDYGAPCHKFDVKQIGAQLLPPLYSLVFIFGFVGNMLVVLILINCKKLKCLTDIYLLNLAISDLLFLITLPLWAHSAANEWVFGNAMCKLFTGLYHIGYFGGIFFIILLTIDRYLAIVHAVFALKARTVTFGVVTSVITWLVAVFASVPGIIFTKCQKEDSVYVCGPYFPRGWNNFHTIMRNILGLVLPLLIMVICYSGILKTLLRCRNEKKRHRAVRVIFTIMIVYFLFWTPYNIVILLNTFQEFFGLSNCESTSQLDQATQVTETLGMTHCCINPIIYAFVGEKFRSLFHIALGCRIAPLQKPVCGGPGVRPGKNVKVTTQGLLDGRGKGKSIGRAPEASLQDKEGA
Assay: CCR2 in vitro test: intracellular calcium signal detected by FLIPR
Details: HEK293 cells expressing CCR2, agonist MCP-1 at EC80, calcium signal
recordedEndpoint: IC50 (nM)

Would you please look over these solved cases?
{"molecule": "CCCCOCCOc1ccc(-c2ccc(OC)c(/C=C/C(=O)Nc3ccc([S@+]([O-])Cc4c(C)ncn4CCC)cc3)c2)cc1", "measuredTarget": "CCR2 (Homo sapiens, UniProt P41597)", "recordedEndpoint": "IC50", "recordedResult": 17.3}
{"molecule": "CCCCOCCOc1ccc(-c2ccc(OC(F)F)c(/C=C/C(=O)Nc3ccc([S@@+]([O-])Cc4cncn4CCC)cc3)c2)cc1", "measuredTarget": "CCR2 (Homo sapiens, UniProt P41597)", "recordedEndpoint": "IC50", "recordedResult": 5.5}
{"molecule": "CCCCOCCOc1ccc(-c2ccc(OC(F)(F)F)c(/C=C/C(=O)Nc3ccc([S@@+]([O-])Cc4c(C)ncn4CC)cc3)c2)cc1", "measuredTarget": "CCR2 (Homo sapiens, UniProt P41597)", "recordedEndpoint": "IC50", "recordedResult": 43.4}
{"molecule": "CCCCOCCOc1ccc(-c2cccc(/C=C/C(=O)Nc3ccc([S+]([O-])Cc4cncn4CC(C)C)cc3)c2)cc1 (stereo not shown)", "measuredTarget": "CCR2 (Homo sapiens, UniProt P41597)", "recordedEndpoint": "IC50", "recordedResult": 167}
{"molecule": "CCCCOCCOc1ccc(-c2ccc(OC(F)F)c(/C=C/C(=O)Nc3ccc([S@+]([O-])Cc4c(C)ncn4CCC)cc3)c2)cc1", "measuredTarget": "CCR2 (Homo sapiens, UniProt P41597)", "recordedEndpoint": "IC50", "recordedResult": 12.5}

P. CCCCOCCOc1ccc(-c2cccc(/C(C)=C/C(=O)Nc3ccc([S@@+]([O-])Cc4cncn4CCC)cc3)c2)cc1
Q. CCCn1cncc1C[S@+]([O-])c1ccc(NC(=O)/C=C/c2cccc(-c3ccc(OCCOC)cc3)c2)cc1
Q. Consider entries P and Q . Which has the numerically lower IC50? Please indicate the selected item by its label.
A. P
(P: 51 nM, Q: 984 nM)

----------
pIC50 data for CYP1A2 (Homo sapiens, UniProt P05177) follow.
pIC50: −log10 of the molar value.

Q. Please provide the recorded pIC50 for CCCCOCCOc1ccc(-c2ccc3c(c2)/C=C(/C(=O)Nc2ccc([S@@+]([O-])Cc4cncn4CCC)cc2)CCCN3CC(C)C)cc1 [(Cenicriviroc), Cenicriviroc, reference compound] , tested on CYP1A2 (Homo sapiens, UniProt P05177).
Sequence (P05177 whole entry): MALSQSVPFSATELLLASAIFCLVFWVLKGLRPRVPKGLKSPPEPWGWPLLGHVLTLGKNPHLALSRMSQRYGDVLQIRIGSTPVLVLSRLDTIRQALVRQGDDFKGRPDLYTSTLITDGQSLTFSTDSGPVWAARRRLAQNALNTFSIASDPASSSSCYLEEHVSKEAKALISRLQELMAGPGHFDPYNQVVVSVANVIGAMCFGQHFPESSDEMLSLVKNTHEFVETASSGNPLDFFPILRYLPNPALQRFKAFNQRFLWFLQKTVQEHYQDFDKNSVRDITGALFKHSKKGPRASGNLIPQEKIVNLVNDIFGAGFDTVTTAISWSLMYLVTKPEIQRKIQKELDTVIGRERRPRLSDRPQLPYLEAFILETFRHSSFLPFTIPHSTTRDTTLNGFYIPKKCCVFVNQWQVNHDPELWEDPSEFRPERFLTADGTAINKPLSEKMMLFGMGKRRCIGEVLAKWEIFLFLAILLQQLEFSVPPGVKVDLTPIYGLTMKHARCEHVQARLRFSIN
A. < 4.30

Q. I'm curious: which pIC50 was measured for CCCCOCCOc1ccc(-c2ccc(OCC)c(/C=C/C(=O)Nc3ccc([S@+]([O-])Cc4c(C)ncn4CC)cc3)c2)cc1 [WX047] tested on CYP1A2 (Homo sapiens, UniProt P05177)?
A. < 4.30

Q. Lab request: please report pIC50 under test system CYP1A2 (Homo sapiens, UniProt P05177) for CCCCOCCOc1ccc(-c2ccc(OC)c(/C=C/C(=O)Nc3ccc([S@+]([O-])Cc4c(C)ncn4CC)cc3)c2)cc1 [WX079]
A. < 4.30

----------
Target: CCR5 (Homo sapiens, UniProt P51681)
Experiment: CCR5 in vitro test: intracellular calcium signal detected by FLIPR
Conditions: HEK293 cells expressing CCR5, agonist RANTES at EC80, calcium signal
pIC50: −log10 of the molar value.
recordedEndpoint: pIC50

Examples from the recorded data:
{"compound": "CCCCOc1ccc(-c2ccc(OCCCF)c(/C=C/C(=O)Nc3ccc([S@@+]([O-])Cc4cncn4CCC)cc3)c2)cc1", "recordedEndpoint": "pIC50", "recordedResult": 8.89}
{"compound": "CCCCOCCOc1ccc(-c2ccc(Cl)c(/C=C/C(=O)Nc3ccc([S@@+]([O-])Cc4cncn4CCC)cc3)c2)cc1", "recordedEndpoint": "pIC50", "recordedResult": 8.35}

1. CCCCOCCOc1ccc(-c2ccc(OC(F)F)c(/C=C/C(=O)Nc3ccc([S@+]([O-])Cc4c(C)ncn4CCC)cc3)c2)cc1
2. CCCCOc1ccc(-c2ccc(Cl)c(/C=C/C(=O)Nc3ccc([S+]([O-])Cc4cncn4CCCC)cc3)c2)cc1 (stereo not shown)
Q. Please indicate which has the smaller reported pIC50: 1 , or 2 . Identify your pick by its label.
A. 2

----------
Molecular target: CCR5 (Homo sapiens)
Construct: expressed in transfected cells; host or cells: HEK293, clone C13, passage P4
Assay: CCR5 in vitro test: intracellular calcium signal detected by FLIPR
Type: cell-based
Details: HEK293 cells expressing CCR5, agonist RANTES at EC80, calcium signal
pIC50: −log10 of the molar value.
recordedEndpoint: pIC50

{"compound": "CCCOc1ccc(-c2cccc(/C=C(\\C)C(=O)Nc3ccc([S+]([O-])Cc4nncn4CCC)cc3)c2)cc1 (stereo not shown) [WX015]", "recordedEndpoint": "pIC50", "recordedResult": 7.19}
{"compound": "CCCCOCCOc1ccc(-c2cccc(/C=C/C(=O)Nc3ccc([S+]([O-])Cc4cncn4CC(C)C)cc3)c2)cc1 (stereo not shown) [WX029]", "recordedEndpoint": "pIC50", "recordedResult": 7.47}

P. CCCn1cncc1C[S@+]([O-])c1ccc(NC(=O)/C=C/c2cccc(-c3ccc(OCC)cc3)c2)cc1 [WX004]
Q. CCCOc1ccc(-c2ccc(OC(F)F)c(/C=C/C(=O)Nc3ccc([S@@+]([O-])Cc4cncn4CCC)cc3)c2)cc1 [WX052]
Q. I would appreciate it if you could say which entry, P or Q , has the lower pIC50 value. Write down the label attached to your selection.
A. Q
(Q: 7.92, P: 8.15)
